- subjectOfTest: Luciferin 4-monooxygenase (Photinus pyralis)
- testDescription: firefly luciferase enzyme inhibitors, primary screen, biochemical, luminescence, purified enzyme, 2006 set (AID 1141);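 note: cell-free assay with purified firefly luciferase at 100 ng per well in PBS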
- experimentalContext: SteadyGlo luminescence, 30 min, higher = more signal, called active from +8 up or from −8 down
observable: z-score
// return just the number, without any unit appended

Worked cases, z-score given:
compound | z-score
COc1cc2c(cc1O)C(C1CC1)N(Cc1ccc([N+](=O)[O-])o1)CC2 (centres undefined) | -0.924
CCCCC(O)C1C=CC2C(=O)N(C)C(=O)C2N1Nc1ccccc1 (centres undefined) | 0.16
CCOC(=O)C1=CC[C@@H](c2ccccc2Cl)N(S(=O)(=O)c2ccc(C)cc2)[C@H]1c1cccc(OC)c1 | 0.658

Kindly review the next compound as well.
[Q] Which measured z-score value corresponds to `C=CCNC(=O)[C@@H]1[C@H]2C(=O)O[C@H](c3ccccc3)[C@H](c3ccccc3)N2[C@H](c2ccccc2OCCO)[C@@]12C(=O)N(C(=O)OCCOC)c1ccc(C#CCCO)cc12` ?
[A] -0.0405

---

- testDescription: COS7 lysate on small-molecule microarray, probe aHis, 635 nm (AID 1123);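 note: z-score combines 667nm fluorescence intensity with signal-to-noise per printed compound spot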
- experimentalContext: COS7 cell lysate, fluorescence, higher = more signal
observable: composite z-score
// return just the number, without any unit appended

Worked cases, composite z-score given:
molecule | composite z-score
Cc1ccc(S[C@]2(C(=O)NC3CC3)CC(=O)N(Cc3cc(C(F)(F)F)cc(C(F)(F)F)c3)[C@@H]2c2ccc(CO)cc2I)cc1 | 1.18
COc1ccc(CCNC(=O)[C@@]2(Sc3ccc(C)cc3)CC(=O)N(C(C)C)[C@@H]2c2ccc(CO)cc2)cc1 | 0.239
CCOC(=O)C[C@H]1[C@H](OC(=O)c2ccc(-c3ccccc3)cc2)[C@@H](NC(=O)CC(C)C)c2cc(OCCCO)ccc2N1C(=O)Cc1ccc(OC)cc1 | 0.179

Kindly review the next molecule as well.
[Q] Which measured composite z-score value corresponds to CCCCC(O)C1C=CC2C(=O)NC(=O)C2N1Nc1ccccn1 (centres undefined) ?
[A] -0.234

---

- testDescription: small-molecule binders of probe aNOTCH3, primary screen, biochemical, small-molecule microarray, 635/667 nm fluorescence (AID 1120);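 note: probe is a biotin-tagged antibody raised against NOTCH3 rather than NOTCH3 protein; score merges spot fluorescence near 667 nm with spot signal to noise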
- experimentalContext: higher = more signal
observable: composite z-score
// return just the number, without any unit appended

[Q] Which measured composite z-score value corresponds to COc1cc2c(cc1O)C(c1ccc(CN3CCCC3)cc1)N(Cc1cccc(OC(F)(F)F)c1)CC2 (configuration not stated) ?
[A] -0.0795

[Q] Lookup `CCCCC(=C=CC[C@@H](O)c1ccc(OCCO)cc1)C[C@@H](O)c1ccccn1`
[A] 0.0557

[Q] Lookup `CC(C)CNC(=O)[C@@H]1c2ccccc2C(=O)N(C(C)C)[C@H]1c1ccc(CO)cc1`
[A] -0.153

[Q] Lookup `COCCOC(=O)N1C(=O)[C@@]2(c3cc(C#CCCO)ccc31)[C@H](c1ccccc1OCCO)N1[C@H](c3ccccc3)[C@H](c3ccccc3)OC(=O)[C@H]1[C@@H]2C(=O)N1CCc2cc(OC)c(OC)cc2C1`
[A] 0.0562

[Q] Lookup `Cc1c(-c2ccc(-c3ccc(Cl)c(Cl)c3)o2)nc(-c2ccccc2)c2c1CO[Si]2(C(C)C)C(C)C`
[A] -0.122

[Q] Lookup `CCOC(=O)C1=C(C(=O)OCC)N(S(=O)(=O)CC[Si](C)(C)C)[C@H](c2ccccc2)CC1`
[A] 0.112

[Q] Lookup `[N-]=[N+]=NCc1ccccc1C[C@]1(C(=O)N2CCOCC2)N=C(c2ccc(OCCCO)cc2)O[C@H]1c1ccccc1CN=[N+]=[N-]`
[A] 0.598

---

# z-score annotations
- subjectOfTest: NADPH oxidase 2 (Homo sapiens)
- testDescription: NOX2-dependent H2O2 signal modulators, primary screen, NOX inhibitor project, cell-based, HEK293-NOX2, PMA-stimulated, Amplex Red fluorescence (AID 1159)
- experimentalContext: 45 min, higher = more signal, called active from +8 up or from −8 down
// return just the number, without any unit appended

Worked cases, z-score given:
smilesStructure | z-score
CN(C)C(=O)[C@]1(Cc2ccccc2)N=C(c2ccc(OCCCO)cc2)O[C@@H]1c1ccccc1 | 0.945
CCOC(=O)C1=CC[C@@H](c2ccccc2)N(S(=O)(=O)C[Si](C)(C)C)[C@H]1c1ccccc1 | 0.324

[Q] NADPH oxidase 2 (Homo sapiens) / z-score / `C[N+](C)(C)CCCC[C@@H]1NC(=O)[C@H]2C[C@@H](C(=O)NCCCCCNC(=O)CS)[C@@H](c3ccc(O)cc3)N2C1=O` : value?
[A] 0.236

[Q] Lookup `CCCCC(=C=CC[C@@H](O)c1ccc(OCCO)cc1)C[C@@H](O)c1ccccn1`
[A] -0.697

[Q] Lookup `O=C1O[C@@H](c2ccccc2)[C@@H](c2ccccc2)N2[C@@H](c3ccc(O)cc3)[C@]3(C(=O)Nc4ccc(C#CC5=CCCCC5)cc43)[C@@H](C(=O)N3CCCCCCC3)[C@H]12`
[A] 0.682

[Q] Lookup `COc1ccc([Si](C)(C)[C@@H]2[C@@H](CC(=O)N(CCO)Cc3ccccc3)O[C@]3(C(=O)N(Cc4ccc(N5CCC5=O)cc4)c4ccccc43)[C@H]2C)cc1`
[A] 1.53

[Q] Lookup `CCCC[C@H]1OB(O)C[C@H]2C1=C(C)C[C@H]1C(=O)C=CC(=O)[C@H]12`
[A] -1.12

---

# composite z-score annotations
- subjectOfTest: E3 ubiquitin-protein ligase XIAP (Homo sapiens)
- testDescription: XIAP binders, primary screen, biophysical, small-molecule microarray, fluorescence 635 nm (AID 1181);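 note: score merges 667 nm emission and signal to noise over triplicate slides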
- experimentalContext: small-molecule microarray binding, higher = more signal

Worked cases, composite z-score given:
compound | observable | dataValue
C=CCC(OC(C)=O)[C@@H]1[C@@H](N(Cc2cccc3ccccc23)C(=O)c2ccc(C)cc2)c2cc(OCCCO)ccc2N1C(=O)c1ccc2ccccc2n1 (some centres undefined) | composite z-score | -0.0535
CCCCC(O)C1C=CC2C(=O)N(C)C(=O)C2N1Nc1ccccc1 (centres undefined) | composite z-score | 0.0742
C=CCC(OC(C)=O)[C@@H]1[C@@H](N(Cc2ccc(-c3cccc(C(F)(F)F)c3)o2)C(=O)Cc2ccc(OC)cc2)c2cc(OCCCO)ccc2N1C(=O)c1ccc2ccccc2n1 (some centres undefined) | composite z-score | 0.36

[Q] Which measured composite z-score value corresponds to CC(C)C[C@@H]1NC(=O)C([C@@H](C)OCc2ccccc2)NC(=O)[C@@]23C(=O)N[C@@H](Cc4ccccc4)C2[C@H](C)[C@@]2(C)O[C@H]2C3/C=C/CC/C=C/CNC1=O (some centres undefined) ?
[A] -0.144

[Q] Lookup `COC(=O)[C@]1(CO)N=C(c2ccc(OCCCO)cc2)O[C@@H]1c1ccccc1CN=[N+]=[N-]`
[A] -0.21

[Q] Lookup `CCCC[C@@H]1C[C@H]1[C@@H](NC(=O)c1ccc(C(F)(F)F)cc1)c1ccc(C(=O)OC)cc1`
[A] 0.209

[Q] Lookup `COCCOC(=O)N1C(=O)[C@@]2(c3cc(C#CC4(O)CCCCCC4)ccc31)[C@H](c1ccc(OCCO)cc1)N1[C@H](c3ccccc3)[C@H](c3ccccc3)OC(=O)[C@H]1[C@@H]2C(=O)N1CCCCCCC1`
[A] -0.151

[Q] Lookup `CC#CCO[Si](C#CCCCCCC)(C(C)C)C(C)C`
[A] -0.22

[Q] Lookup `CC(C)C[C@@H]1NC(=O)[C@H]2C[C@@H](C(=O)NCCCCCCNC(=O)CS)[C@@H](c3ccc(O)cc3)N2C1=O`
[A] 0.101

[Q] Lookup `COCCCNC(=O)[C@@H]1c2ccccc2C(=O)N(Cc2cc(C(F)(F)F)cc(C(F)(F)F)c2)[C@H]1c1ccc(CO)cc1`
[A] 0.0871

---

# z-score annotations
- testDescription: modulators of HCV replicon luciferase signal, primary screen, HCV replication inhibitor project, Huh7 cells, luciferase reporter (AID 1109);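 note: huh7 hepatoma cells harbouring a luciferase neomycin HCV replicon reporter; luciferase luminescence as measure of HCV replicon replication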
- experimentalContext: 48 h, higher = more signal
// return just the number, without any unit appended

Worked cases, z-score given:
compound | z-score
[N-]=[N+]=Nc1ccccc1[C@@H]1OC(c2ccc(OCCCO)cc2)=N[C@]1(Cc1ccccc1)C(N)=O | -0.837
CC(=O)c1ccc(C(O)C2C=CC3C(=O)N(C)C(=O)C3N2NC(=O)OC(C)(C)C)cc1 (centres undefined) | -0.859
CCCCC(O)C1C=CC2C(=O)NC(=O)C2N1Nc1ccc(Cl)cc1Cl (centres undefined) | -1.12

Kindly review the next compound as well.
[Q] Which measured z-score value corresponds to C=CCC(OC(C)=O)[C@@H]1[C@@H](N(Cc2cc3ccccc3o2)C(=O)c2ccc(-c3ccccc3)cc2)c2cc(OCCCO)ccc2N1C(=O)c1ccc2ccccc2n1 (some centres undefined) ?
[A] 0.104

---

- System: XIP peptide (Xip251-270)
- testDescription: small-molecule binders of XIP peptide, primary screen, biochemical, small-molecule microarray, fluorescence 635/667 nm, 0.5 µg/mL protein (AID 1183)
- experimentalContext: small-molecule microarray binding, fluorescence 635 nm; higher = more signal
Label 1 when composite z-score is at or above 0.6; otherwise label 0.

molecule | assignedLabel
Cc1ccc(S[C@]2(C(=O)NC3CC3)CC(=O)N(Cc3cc(C(F)(F)F)cc(C(F)(F)F)c3)[C@@H]2c2ccc(CO)cc2I)cc1 | 1
CC(C)C[C@@H]1NC(=O)[C@@]23C(=O)N[C@@H](Cc4ccccc4)C2[C@H](C)[C@@]2(C)O[C@H]2C3/C=C/C/C=C\CNC(=O)[C@@H](CC(C)C)NC1=O (some centres undefined) | 0
CC(C)C[C@H]1NC(=O)[C@@H](C)NC(=O)[C@@]23C(=O)N[C@@H](Cc4ccccc4)C2[C@H](C)[C@@]2(C)O[C@H]2C3/C=C/C/C=C\CNC1=O (some centres undefined) | 1
[N-]=[N+]=NCc1ccccc1C[C@]1(C(=O)N2CCCCC2)N=C(c2ccc(OCCCO)cc2)O[C@H]1c1ccccc1 | 1
COCCn1c(C(=O)N2CCCC2)cc2c1C[C@H]1CN(C(=O)c3ccccc3)[C@@](Cc3ccccc3)(C(=O)OC)[C@@H]21 | 1
O=C1c2ccccc2[C@](Cc2ccccc2I)(C(=O)O)[C@H](c2ccc(CO)cc2)N1Cc1ccccc1 | 1

[Q] Threshold query (composite z-score >= 0.6) on `CCC[C@@H]1[C@@H](Sc2ccccc2)[C@@H](C(=O)O)[C@H](c2ccc(C)cc2)N1S(=O)(=O)c1ccc(C)cc1`
[A] 1

[Q] Lookup `[N-]=[N+]=NCc1ccccc1C[C@]1(C(=O)NCc2ccccc2)N=C(c2ccc(OCCCO)cc2)O[C@H]1c1ccccc1CN=[N+]=[N-]`
[A] 1

[Q] Lookup `O=C1N(CCS(=O)(=O)c2ccccc2)c2ccccc2[C@@H]2OC(c3ccc(OCCCO)cc3)=N[C@]12CCS(=O)(=O)c1ccccc1`
[A] 1
